Exercise: state measured Cmax for each of the compounds provided.
Experimental details: Maximum plasma concentration in Beagle dogs at oral dose of 20 mg/kg and an intravenous dose of 5 mg/kg was administered
Format: ADME, organism-based, Canis lupus familiaris
Measurement conditions: dog
Report the value in ng/mL with no unit label.

Query :: Determine its reported Cmax: COc1cc(C(C)C)c2c(c1)S(=O)(=O)N(COC(=O)c1c(Cl)ccc(S(=O)(=O)N(C)CCN(C)C)c1Cl)C2=O
Result :: 300

Query :: Kindly indicate its recorded Cmax. Item: COc1cc(C(C)C)c2c(c1)S(=O)(=O)N(COC(=O)c1c(Cl)ccc(OCCN3CCCC3)c1Cl)C2=O
Result :: 325

Query :: Give reported Cmax value for COc1cc(C(C)C)c2c(c1)S(=O)(=O)N(COC(=O)c1c(Cl)ccc(S(=O)(=O)N3CCN(C)CC3)c1Cl)C2=O
Result :: 390

Query :: Give a short answer stating reported Cmax for CC(C)c1cc(O)cc2c1C(=O)N(COC(=O)c1c(Cl)ccc(S(=O)(=O)N3CCN(C)CC3)c1Cl)S2(=O)=O .
Result :: 220

Query :: Look up and report measured Cmax for this entry: COc1cc(C(C)C)c2c(c1)S(=O)(=O)N(COC(=O)c1c(Cl)ccc(OCCN3CCOCC3)c1Cl)C2=O
Result :: 1200

----------
Experimental details: Compound was tested for the half life time period in monkey blood
Assay type: ADME, tissue-based
Measurement conditions: simiiformes
Result type: half-life

Query :: For the molecule COc1cc(C(C)C)c2c(c1)S(=O)(=O)N(COC(=O)c1c(Cl)ccc(OCCN3CCOCC3)c1Cl)C2=O , report half-life.
Result :: 57.2 min

----------
Experimental details: Compound was tested for half life time period in hamster blood
Format: ADME, organism-based
Measurement conditions: cricetinae
Result type: half-life (h)
All answers are understood in h, so give the number only.

Query :: Identify half-life associated with the compound COc1cc(C(C)C)c2c(c1)S(=O)(=O)N(COC(=O)c1c(Cl)ccc(OCCN3CCOCC3)c1Cl)C2=O
Result :: 4.32

----------
Kindly supply the reported half-life values for the records listed here.
Experimental details: Human tissue stability for the compound was determined by its half life time period in human blood
Format: ADME, organism-based
Respond with the bare value in h.

Query :: Tell me half-life reported for CC(C)c1cccc2c1C(=O)N(COC(=O)c1c(Cl)ccc(OCCN3CCOCC3)c1Cl)S2(=O)=O
Result :: 0.333

Query :: Note down half-life recorded for COc1cc(C(C)C)c2c(c1)S(=O)(=O)N(COC(=O)c1c(Cl)ccc(S(=O)(=O)N(C)CCN(C)C)c1Cl)C2=O
Result :: 2.17

Query :: Supply reported half-life belonging to this molecule: COc1cc(C(C)C)c2c(c1)S(=O)(=O)N(COC(=O)c1c(Cl)ccc(OCCN3CCCC3)c1Cl)C2=O
Result :: 1.83

Query :: Please give the documented half-life of COc1cc(C(C)C)c2c(c1)S(=O)(=O)N(COC(=O)c1c(Cl)ccc(OCCN3CCOCC3)c1Cl)C2=O
Result :: 0.6

Query :: Provide half-life value for the following molecule: COc1cc(C(C)C)c2c(c1)S(=O)(=O)N(COC(=O)c1c(Cl)ccc(S(=O)(=O)N3CCN(C)CC3)c1Cl)C2=O
Result :: 1.5

----------
Experimental details: Human tissue stability for the compound was determined by its half life time period in human blood
Assay type: ADME, organism-based
Hi there, I'd appreciate the recorded half-life for every entry that follows.

Query :: Let me know recorded half-life for O=C1c2ccccc2S(=O)(=O)N1CSc1nnnn1-c1ccccc1 , thanks.
Result :: < 5 min

Query :: Complete the entry with half-life for COc1cc(C(C)C)c2c(c1)S(=O)(=O)N(COC(=O)c1c(Cl)ccc(OCC(=O)O)c1Cl)C2=O
Result :: < 15 min

Query :: Complete the entry with half-life for CC(C)c1cc(O)cc2c1C(=O)N(COC(=O)c1c(Cl)ccc(S(=O)(=O)N3CCN(C)CC3)c1Cl)S2(=O)=O
Result :: > 1200 min
